# Species on record: Rattus norvegicus
# experimental.details: The catalepsy was measured in rat by using bar test
# Assay type: functional
endpoint: log10 of ED50 (log10 of the value in µmol/kg)
The common logarithm of ED50 in µmol/kg is what is listed.

The examples below pair each entry with its known result.
{"columns": ["compound", "endpoint", "quantitative.readout"],
 "data": [
  ["COc1cc(Br)c(O)c(C(=O)NC[C@H]2CCCN2Cc2ccc(F)cc2)c1OC", "log10 of ED50", 1.11],
  ["CCN1CCC[C@H]1CNC(=O)c1c(O)c(Br)cc(OC)c1OC", "log10 of ED50", -0.89],
  ["CCN1CCC[C@H]1CNC(=O)c1cc(Br)cc(OC)c1OC", "log10 of ED50", -0.41],
  ["CCN1CCC[C@H]1CNC(=O)c1c(O)c(Cl)cc(Cl)c1OC [RACLOPRIDE]", "log10 of ED50", 1.00],
  ["COc1ccc(Br)c(O)c1C(=O)NC[C@H]1CCCN1Cc1ccc(F)cc1", "log10 of ED50", 1.43]
]}

Please look up its log10 of ED50: CCN1CCC[C@H]1CNC(=O)c1c(OC)ccc(Br)c1O
0.00

====

# System: Rattus norvegicus
# experimental.details: Block of apomorphine-induced response measured as hypothermia injected ip 30 min prior to apomorphine hydrochloride(1 mg/kg, sc)
# Assay type: functional
endpoint: ED50 (µmol/kg)
Answers are plain numbers, in µmol/kg.

Recorded ED50, per entry:
{"columns": ["entry.smiles", "system.tested", "unit.spec", "quantitative.readout"],
 "data": [
  ["COc1ccc(Br)c(O)c1C(=O)NC[C@H]1CCCN1Cc1ccc(F)cc1", "Rattus norvegicus", "µmol/kg", 1.7],
  ["COc1cc(Br)c(O)c(C(=O)NC[C@H]2CCCN2Cc2ccc(F)cc2)c1OC", "Rattus norvegicus", "µmol/kg", 1.3],
  ["CCN1CCC[C@H]1CNC(=O)c1c(OC)ccc(Br)c1O", "Rattus norvegicus", "µmol/kg", 0.6]
]}

Returns the measured ED50 for the input compound. Input: CCN1CCC[C@H]1CNC(=O)c1cc(Br)cc(OC)c1OC
0.005

====

# system.tested: D(2) dopamine receptor (Rattus norvegicus, UniProt P61169)
# Sequence (P61169 whole entry): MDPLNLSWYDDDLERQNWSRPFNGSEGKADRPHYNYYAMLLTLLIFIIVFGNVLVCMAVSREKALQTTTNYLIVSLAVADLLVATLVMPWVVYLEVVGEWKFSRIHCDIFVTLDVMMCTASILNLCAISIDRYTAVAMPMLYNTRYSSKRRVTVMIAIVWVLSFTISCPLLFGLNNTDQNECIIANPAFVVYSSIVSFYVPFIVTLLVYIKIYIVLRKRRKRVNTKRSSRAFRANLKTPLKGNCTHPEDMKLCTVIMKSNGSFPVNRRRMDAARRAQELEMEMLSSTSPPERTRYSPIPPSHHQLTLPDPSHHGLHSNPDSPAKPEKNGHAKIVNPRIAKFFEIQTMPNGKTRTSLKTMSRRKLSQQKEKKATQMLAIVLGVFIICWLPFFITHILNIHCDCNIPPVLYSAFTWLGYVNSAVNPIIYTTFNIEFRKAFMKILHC
# experimental.details: Inhibition of [3H]raclopride binding to rat striatal dopamine receptor D2
Give pKi for every item shown.
Numbers only, as −log10 of the molar value.

Worked set:
{"columns": ["entry.smiles", "quantitative.readout"],
 "data": [
  ["COc1ccc(Br)c(O)c1C(=O)NC[C@H]1CCCN1Cc1ccc(F)cc1", 9.37],
  ["COc1ccc(Br)c(O)c1C(=O)NC[C@H]1CCCN1Cc1ccccc1", 9.10],
  ["COc1cc(Br)cc(C(=O)NC[C@H]2CCCN2Cc2ccccc2)c1OC", 10.62],
  ["COc1cc(Br)c(O)c(C(=O)NC[C@H]2CCCN2Cc2ccc(F)cc2)c1OC", 9.72]
]}

Value lookup for pKi; key = CCN1CCC[C@H]1CNC(=O)c1cc(Br)cc(OC)c1OC
10.74

====

# system.tested: UniProt P61169
# experimental.details: Inhibition of [3H]spiperone binding to rat striatal dopamine receptor D2 was determined in vitro
endpoint: pIC50
Answers are plain numbers, as −log10 of the molar value.

{"columns": ["compound", "pIC50"],
 "data": [
  ["COc1ccc(Br)c(O)c1C(=O)NC1CCN(Cc2ccccc2)CC1", 7.39],
  ["COc1cc(Br)cc(C(=O)NC[C@H]2CCCN2Cc2ccccc2)c1OC", 8.85],
  ["CCc1cc(Cl)c(OC)c(C(=O)NC[C@H]2CCCN2Cc2ccc(F)cc2)c1O", 7.54]
]}

List reported pIC50 for each of these compounds:
1. COc1ccc(Br)c(O)c1C(=O)NC[C@H]1CCCN1Cc1ccc(F)cc1
2. COc1ccc(Br)c(O)c1C(=O)NC[C@H]1CCCN1Cc1ccccc1
3. COc1cc(Br)c(O)c(C(=O)NC2CCN(Cc3ccccc3)CC2)c1OC
4. COc1cc(Br)cc(C(=O)NC[C@@H]2CCCN2Cc2ccc(F)cc2)c1OC
5. COc1cc(Br)c(OC)c(C(=O)NC[C@H]2CCCN2Cc2ccccc2)c1OC
6. COc1ccc(Br)c(O)c1C(=O)NCC1CCCN1Cc1ccccc1 (racemic)
7. CCN1CCC[C@H]1CNC(=O)c1cccc(OC)c1OC

1: 7.55; 2: 7.74; 3: 9.44; 4: 6.90; 5: 5.73; 6: 7.44; 7: 7.28

For every record below, what is its pIC50?
1. COc1c(Cl)cc(Cl)c(OC)c1C(=O)NC1CCN(Cc2ccccc2)CC1
2. COc1c(Cl)cc(Cl)c(O)c1C(=O)NC1CCN(Cc2ccccc2)CC1
3. COc1cc(Br)c(OC)c(C(=O)NC[C@H]2CCCN2Cc2ccc(F)cc2)c1OC
4. COc1cccc(C(=O)NC2CCN(Cc3ccccc3)CC2)c1OC
5. COc1cc(Br)cc(C(=O)NC[C@H]2CCCN2Cc2ccc(F)cc2)c1OC
6. COc1cc(Br)c(OC)c(C(=O)NC[C@H]2CCCN2Cc2ccc(F)cc2)c1O
7. COc1cccc(C(=O)NC[C@H]2CCCN2Cc2ccccc2)c1OC
8. CCc1cc(Cl)c(OC)c(C(=O)NC2CCN(Cc3ccccc3)CC2)c1O

5.46
8.27
5.66
8.20
9.19
6.91
7.68
8.03

====

# system.tested: D(2) dopamine receptor (Rattus norvegicus, UniProt P61169)
# experimental.details: Inhibition of [3H]spiperone binding to rat striatal dopamine receptor D2 was determined in vitro
endpoint: IC50 (nM)
Answers are plain numbers, in nM.

Guide cases for IC50, answers given:
{"columns": ["compound", "endpoint", "unit.spec", "quantitative.readout"],
 "data": [
  ["COc1ccc(Br)c(O)c1C(=O)NCC1CCCN1Cc1ccccc1 (single isomer, unassigned)", "IC50", "nM", 2680],
  ["COc1c(Cl)cc(Cl)c(O)c1C(=O)NC[C@H]1CCCN1Cc1ccc(F)cc1", "IC50", "nM", 21]
]}

Could you now consider this next compound?
What value of measured IC50 is listed for COc1c(Cl)cc(Cl)c(OC)c1C(=O)NC[C@H]1CCCN1Cc1ccc(F)cc1 ?
2380
